Readings of melting point for the listed compounds

COMPOUND | melting point
CCCCCCCCCCCCCCCC(=O)OCC(CSCC(NC(=O)OCc1cccc2c1Cc1ccccc1-2)C(=O)OC(C)(C)C)OC(=O)CCCCCCCCCCCCCCC (mixture of isomers) | 52 to 54 °C
CC(=O)OC1C(O)C(C)OC(OC2C(OC(=O)C3CCC4C(C3)OC3(CC(OC(=O)C=Cc5ccccc5)C(C)CO3)C43CO3)OC(C)C(O)C2OC(C)=O)C1O (stereo unspecified) | 125 to 127 °C
O=S(=O)(Cl)Cc1cccc(C(F)(F)F)c1 | 60 °C
CCCCCCCCCS(=O)(=O)c1cc2c3cc(S(=O)(=O)CCCCCCCCC)c(S(=O)(=O)CCCCCCCCC)cc3c3cc(S(=O)(=O)CCCCCCCCC)c(S(=O)(=O)CCCCCCCCC)cc3c2cc1S(=O)(=O)CCCCCCCCC | 202 °C
[N-]=[N+]=C(C(=O)OCCN(CCOC(=O)C(=[N+]=[N-])C(=O)C1CCCCC1)CCN(CCOC(=O)C(=[N+]=[N-])C(=O)C1CCCCC1)CCOC(=O)C(=[N+]=[N-])C(=O)C1CCCCC1)C(=O)C1CCCCC1 | 112 to 114 °C
CC(C)(C)OC(=O)NC(Cc1cc(I)c(Oc2cc(I)c(OCC3CO3)c(I)c2)c(I)c1)C(=O)OCC1CO1 (stereo unspecified) | 105 °C
C=CCN1C(C)(C)CC(N(CCCC)c2nc(N(CCCC)C3CC(C)(C)N(CC=C)C(C)(C)C3)nc(N(CCCC)C3CC(C)(C)N(CC=C)C(C)(C)C3)n2)CC1(C)C | 161 to 163 °C
CCCCCCCCCCCCCCCCOC(=O)c1ccc(C(=O)N(CCCCCCCCCCCCCCCC)OCCCCCCCCCCCCCCCC)nc1 | 93 to 95 °C
FC(F)(F)C(F)(F)C(F)(F)C(F)(F)C(F)(F)C(F)(F)C(F)(F)C(F)(F)CCCCCCC1(CCCCCCC(F)(F)C(F)(F)C(F)(F)C(F)(F)C(F)(F)C(F)(F)C(F)(F)C(F)(F)F)c2cc(Br)ccc2-c2ccc(Br)cc21 | 82 to 83 °C
CS(C)(=O)=NC(=O)c1cc(Oc2ccc(C(F)(F)F)cc2Cl)ccc1Cl | 128 to 131 °C
NC(=O)c1c(C(=O)O)cnn1-c1ccccc1 | 234 to 235 °C
CN1CCC(c2nn(-c3ccncc3)c3ccccc23)CC1 | 205 to 207 °C
CC(=O)OC12COC1CC(O)C1(C)C(=O)C(O)C3=C(C)C(OC(=O)C(O)C(NC(=O)OC(C)(C)C)c4ccccc4)CC(O)(C(OC(=O)c4ccccc4)C21)C3(C)C (stereo unspecified) | 196 to 203 °C
CCOc1cc2c(cc1O)CCC1C2CCC2(C)C(O)CCC12 (stereo unspecified) | 154 to 155 °C
O=C(CC(=O)c1cc(F)c(F)cc1F)OCc1ccc(OCCCCCCCCCCC2c3c(c4ccccc4c4ccccc34)-c3c2c2ccccc2c2ccccc32)cc1 | 58 to 60 °C
O=CCCCCCCOc1ccc(OCc2ccccc2)cc1 | 65 to 67 °C
CC(=O)OCC1OC(OC2C(COC(C)=O)OC(OC3C(CO)OC(OCCBr)C(OC(=O)c4ccccc4)C3OC(=O)c3ccccc3)C(OC(C)=O)C2OC(C)=O)C(OC(C)=O)C(OC(C)=O)C1OC(C)=O (stereo unspecified) | 218 to 220 °C
CCCCCCc1cc(S(C)(=O)=NS(=O)(=O)c2ccc(C)cc2)ccc1O (stereo unspecified) | 109 to 110 °C
CCCCN(Cc1c(C)cc(C(C)(C)C)c(O)c1C)S(=O)(=O)c1ccc(-c2ccc(S(=O)(=O)N(CCCC)Cc3c(C)cc(C(C)(C)C)c(O)c3C)cc2)cc1 | 225 to 227 °C
C=CCCC(=O)Nc1c(I)c(C(=O)NC(COC(C)=O)COC(C)=O)c(I)c(C(=O)NC(COC(C)=O)COC(C)=O)c1I | 162 to 164 °C
CC(=O)Nc1cc(C(=O)NC2OC(COC(C)=O)C(OC3OC(COC(C)=O)C(OC(C)=O)C(OC(C)=O)C3OC(C)=O)C(OC(C)=O)C2OC(C)=O)ccc1Cl (stereo unspecified) | 122 to 124 °C
Cc1ccc(C(c2ccc(C)c(C(OS(C)(=O)=O)(C(F)(F)F)C(F)(F)F)c2)(C(F)(F)F)C(F)(F)F)cc1C(OS(C)(=O)=O)(C(F)(F)F)C(F)(F)F | 135 °C
Cc1ccc(S(=O)(=O)N2CCN(S(=O)(=O)c3ccc(C)cc3)CC(Cc3ccc(O)cc3)N(S(=O)(=O)c3ccc(C)cc3)N(S(=O)(=O)c3ccc(C)cc3)CC2)cc1 (stereo unspecified) | 192 to 193 °C
CNC(=O)[C@@H](NC(=O)[C@@H](NC(=O)c1c(I)c(NC(C)=O)c(I)c(C(=O)O)c1I)C(C)C)C(C)C | 247 to 248 °C
Ic1cc(NC2=NCCN2)cc2[nH]cnc12 | 180 to 181 °C
CN(C)C(=O)c1cc2c(nc(C3CC3)n2C)c(O)c1CCC(O)c1ccccc1 (stereo unspecified) | 92 to 94 °C
